Test: in vitro
Settings: human
Structures can show the parent of a compound that is named as a salt.
assayReadout: cytotoxicity at 41 h, 10 µM
Quick note: unit goes after the number.

Give me cytotoxicity at 41 h, 10 µM for each of these compounds, listed below.
1. C=C[C@H]1C[N@@]2CC[C@H]1C[C@H]2[C@H](O)c1ccnc2ccc(OC)cc12 [QUININE SULFATE]
2. CC1=CC2C(CC1=O)C(C)=CCC2C(C)C (stereo not shown)
3. O=C(O)[C@@H](O)[C@H](O)[C@H](O)[C@@H](O)C(=O)O
4. Oc1ccc(/C=C/c2cc(O)cc(O)c2)cc1
5. COC(=O)C[C@H]1C(C)(C)C2(O)OC34CC2C(=O)[C@]1(C)C3CC[C@]1(C)C4=CC(=O)O[C@H]1c1ccoc1 (stereo partly drawn) [8beta-HYDROXYCARAPIN, 3,8-HEMIACETAL]
6. CC1(C)C[C@@H]2C(=O)CC[C@H]3O[C@]3(C)CC[C@H]21
7. COC1=CC(=O)C[C@@H](C)[C@]12Oc1c(Cl)c(OC)cc(OC)c1C2=O

-8.7%
-1.7%
-13.8%
-9.6%
11.8%
0.5%
18.7%
